Recorded Colloid radius ±SD for the following compounds
# Assay type: physicochemical
# measurement.parameters: DLS; literature hits

compound | Colloid radius ±SD (nm)
O=c1c(O)c(-c2cc(O)c(O)c(O)c2)oc2cc(O)cc(O)c12 | 100
C[C@@H](NCCCc1cccc(C(F)(F)F)c1)c1cccc2ccccc12 | 77
Cc1cc(O)c2c(=O)c3c(O)cc(O)c4c5c(O)cc(O)c6c(=O)c7c(O)cc(C)c8c1c2c(c34)c(c78)c65 | 143
COC(=O)C1=C(C)NC(C)=C(C(=O)OC(C)(C)CN(C)CCC(c2ccccc2)c2ccccc2)C1c1cccc([N+](=O)[O-])c1 (stereo not shown) | 853

----------
# Assay type: physicochemical
# measurement.parameters: DLS; drugs from repurposing library
In this section, each of the molecules is paired with its reported Colloid radius ±SD.

molecule | Colloid radius ±SD
CC(C)(C)[C@H]1CC[C@H](CC2=C(O)C(=O)c3ccccc3C2=O)CC1 | 186 ± 15 nm
c1ccc(-c2ccc(C(c3ccccc3)n3ccnc3)cc2)cc1 (stereo not drawn) | 184 ± 80 nm
Cc1c(C)c2c(c(C)c1O)CCC(C)(CCCC(C)CCCC(C)CCCC(C)C)O2 (stereo not drawn) | 466 ± 5.6 nm
COc1c2ccc(-c3ccccc3)oc-2cc(=O)c1C | 101 ± 22 nm
Cc1c(-c2ccc(O)cc2)n(Cc2ccc(OCCN3CCCCCC3)cc2)c2ccc(O)cc12 | 2822 ± 814 nm
COc1ccc(-c2ccc3cc(C(=O)O)ccc3c2)cc1C12CC3CC(CC(C3)C1)C2 | 422 ± 65 nm

----------
# Format: physicochemical
# measurement.parameters: DLS; literature hits
Output T for Colloid radius ±SD not less than 200 nm; output F otherwise.

molecule | group
Cc1cc(O)c2c(c1)C(=O)c1cc(O)cc(O)c1C2=O | F
CC(C)=CC[C@@H](O)C1=CC(=O)c2c(O)ccc(O)c2C1=O | F
O=C1c2c(O)cccc2Cc2cccc(O)c21 | T
O=C1C=C2CC3(O)COc4c(ccc(O)c4O)C3=C2C=C1O (centres unmarked) | F
Clc1ccccc1C(c1ccccc1)(c1ccccc1)n1ccnc1 | T
C/C(=C\c1ccc(C(=O)O)cc1)c1ccc2c(c1)C(C)(C)CCC2(C)C | F
Oc1c(I)cc(Cl)c2cccnc12 | T
O=C(O)c1ccc(N2C(=O)/C(=C\c3ccc(-c4ccc([N+](=O)[O-])cc4)o3)C=C2c2ccccc2)cc1 | F

----------
# Format: physicochemical
# measurement.parameters: DLS; literature hits
Reported Colloid radius ±SD is given for each of the following compounds.
endpoint: Colloid radius ±SD (nm)

compound | meas.value
O=C(O)c1cccc(CN2C(=O)/C(=C(\c3ccccc3)c3ccc(Cl)cc3)c3ccccc32)c1 [YLF-466D] | 40
Cc1cc2c(C(C)C)c(O)c(O)c(C=O)c2c(O)c1-c1c(C)cc2c(C(C)C)c(O)c(O)c(C=O)c2c1O [Gossypol] | 70
COC(=O)C1=C(C)NC(C)=C(C(=O)OCCN2CCN(C(c3ccccc3)c3ccccc3)CC2)C1c1cccc([N+](=O)[O-])c1 (stereo not shown) [Manidipine] | 929
O=C1CCc2ccc(OCCCCN3CCN(c4cccc(Cl)c4Cl)CC3)cc2N1 [Aripiprazole] | 222

Value source: paper PMC8665103
